Recorded values, source BigSolDB 2.1.

conditions: in ethanol, 313.15 K
metric_name: solubility (mole fraction)

| structure_string | metric_name | reading |
| --- | --- | --- |
| CC(C)[C@@H](C)[C@@H](O)[C@H](O)[C@@H](C)[C@H]1CC[C@H]2[C@@H]3COC(=O)[C@H]4C[C@H](O)[C@H](O)C[C@]4(C)[C@H]3CC[C@]12C | solubility (mole fraction) | 0.00476 |

---

conditions: in acetonitrile, 318.15 K
metric_name: solubility (mole fraction)

| structure_string | reading |
| --- | --- |
| CC(C)[C@@H](C)[C@@H](O)[C@H](O)[C@@H](C)[C@H]1CC[C@H]2[C@@H]3COC(=O)[C@H]4C[C@H](O)[C@H](O)C[C@]4(C)[C@H]3CC[C@]12C | 0.000728 |

---

details: in isopropanol, 303.15 K
metric_name: solubility (mole fraction)

| structure_string | metric_name | reading |
| --- | --- | --- |
| CC(C)[C@@H](C)[C@@H](O)[C@H](O)[C@@H](C)[C@H]1CC[C@H]2[C@@H]3COC(=O)[C@H]4C[C@H](O)[C@H](O)C[C@]4(C)[C@H]3CC[C@]12C | solubility (mole fraction) | 0.00312 |

---

details: in acetonitrile, 308.15 K
metric_name: solubility (mole fraction)

| structure_string | metric_name | reading |
| --- | --- | --- |
| CC(C)[C@@H](C)[C@@H](O)[C@H](O)[C@@H](C)[C@H]1CC[C@H]2[C@@H]3COC(=O)[C@H]4C[C@H](O)[C@H](O)C[C@]4(C)[C@H]3CC[C@]12C | solubility (mole fraction) | 0.000491 |

---

conditions: in ethanol, 318.15 K
metric_name: solubility (mole fraction)

| structure_string | reading |
| --- | --- |
| CC(C)[C@@H](C)[C@@H](O)[C@H](O)[C@@H](C)[C@H]1CC[C@H]2[C@@H]3COC(=O)[C@H]4C[C@H](O)[C@H](O)C[C@]4(C)[C@H]3CC[C@]12C | 0.00551 |

---

conditions: in isopropanol, 288.15 K

| structure_string | solubility (mole fraction) |
| --- | --- |
| CC(C)[C@@H](C)[C@@H](O)[C@H](O)[C@@H](C)[C@H]1CC[C@H]2[C@@H]3COC(=O)[C@H]4C[C@H](O)[C@H](O)C[C@]4(C)[C@H]3CC[C@]12C | 0.00169 |

---

conditions: in ethanol, 298.15 K
metric_name: solubility (mole fraction)

| structure_string | reading |
| --- | --- |
| CC(C)[C@@H](C)[C@@H](O)[C@H](O)[C@@H](C)[C@H]1CC[C@H]2[C@@H]3COC(=O)[C@H]4C[C@H](O)[C@H](O)C[C@]4(C)[C@H]3CC[C@]12C | 0.0032 |

---

conditions: in acetone, 298.15 K

| structure_string | solubility (mole fraction) |
| --- | --- |
| CC(C)[C@@H](C)[C@@H](O)[C@H](O)[C@@H](C)[C@H]1CC[C@H]2[C@@H]3COC(=O)[C@H]4C[C@H](O)[C@H](O)C[C@]4(C)[C@H]3CC[C@]12C | 0.0024 |

---

conditions: in acetonitrile, 313.15 K

| structure_string | solubility (mole fraction) |
| --- | --- |
| CC(C)[C@@H](C)[C@@H](O)[C@H](O)[C@@H](C)[C@H]1CC[C@H]2[C@@H]3COC(=O)[C@H]4C[C@H](O)[C@H](O)C[C@]4(C)[C@H]3CC[C@]12C | 0.0006 |
